target: human VPS34 (Homo sapiens (Human)); assay: Human VPS34 enzyme assay (Adapta TR-FRET ADP detection); format: biochemical; details: IC50 range class
Sequence (Q8NEB9 whole entry): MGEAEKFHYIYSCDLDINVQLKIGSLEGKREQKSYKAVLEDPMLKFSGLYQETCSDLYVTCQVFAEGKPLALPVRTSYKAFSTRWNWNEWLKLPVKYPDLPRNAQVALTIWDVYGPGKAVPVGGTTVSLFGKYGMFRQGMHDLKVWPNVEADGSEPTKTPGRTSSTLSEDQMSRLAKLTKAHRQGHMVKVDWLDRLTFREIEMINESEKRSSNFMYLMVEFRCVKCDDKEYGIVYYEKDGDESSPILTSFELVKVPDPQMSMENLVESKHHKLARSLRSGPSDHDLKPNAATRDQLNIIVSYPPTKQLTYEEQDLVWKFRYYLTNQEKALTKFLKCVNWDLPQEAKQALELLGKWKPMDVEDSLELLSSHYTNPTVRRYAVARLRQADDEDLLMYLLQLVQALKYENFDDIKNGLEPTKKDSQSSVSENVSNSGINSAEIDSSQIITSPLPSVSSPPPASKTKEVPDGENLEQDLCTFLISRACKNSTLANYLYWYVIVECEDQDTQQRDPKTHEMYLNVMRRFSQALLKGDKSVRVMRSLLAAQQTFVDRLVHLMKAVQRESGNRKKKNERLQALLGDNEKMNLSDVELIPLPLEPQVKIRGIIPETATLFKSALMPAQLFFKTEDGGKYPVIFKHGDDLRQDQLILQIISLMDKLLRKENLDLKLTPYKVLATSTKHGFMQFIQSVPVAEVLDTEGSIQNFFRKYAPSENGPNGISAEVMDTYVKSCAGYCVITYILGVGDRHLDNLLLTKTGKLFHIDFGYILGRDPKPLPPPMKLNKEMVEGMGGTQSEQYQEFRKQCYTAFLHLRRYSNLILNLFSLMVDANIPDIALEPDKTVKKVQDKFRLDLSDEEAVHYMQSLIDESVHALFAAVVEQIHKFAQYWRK
Could you please report measured IC50 for the items listed next?

Examples with answers:
CC(=O)Nc1cc(-c2cnc3[nH]cc(S(=O)(=O)N4CCCC4)c3c2)ccn1 : < 10 nM
CC(=O)Nc1cc(-c2cnc(Cl)c(C(=O)N3CCC3)c2)c(C)cn1 : > 100 nM
Cc1nccc(Nc2cc(-c3cnc(C)c(NC(=O)c4ccc(F)cc4F)c3)ccn2)n1 : 50 to 100 nM
CCN(CC)S(=O)(=O)c1cc(-c2ccnc(NC(C)=O)c2)cnc1C : 10 to 50 nM

Working through the 4 compounds below one at a time, give IC50 for each.
1. CC(=O)Nc1cc(-c2cncc(NS(=O)(=O)c3ccc(F)cc3F)c2C)ccn1
2. COc1ccc(S(=O)(=O)Nc2cc(-c3ccnc(NC(C)=O)c3)cnc2C)cc1
3. Cc1nccc(Nc2cc(-c3cnc(O)c(S(=O)(=O)NC4CCC4)c3)ccn2)n1
4. CNc1ncc(-c2ccnc(NC(C)=O)c2)cc1C(=O)N(C)C

Result:
["10 to 50 nM", "< 10 nM", "10 to 50 nM", "10 to 50 nM"]

Look up IC50 for the entries below, preserving their order.
1. CC(=O)Nc1cc(-c2cnc(C)c(NS(=O)(=O)c3ccc(C(C)C)cc3)c2)ccn1
2. CC(=O)Nc1cc(-c2cnc(Cl)c(S(=O)(=O)NC34CC(C3)C4)c2)ccn1
3. CC(=O)Nc1cc(-c2cnc(C)c(OCC3CC3)c2)ccn1
4. CC(=O)Nc1cc(-c2cnc(C)c(NS(=O)(=O)C3CCCCC3)c2)ccn1
5. COc1ncc(-c2ccnc(NC(C)=O)c2)cc1C(=O)N(C)C
6. CN(C)c1ncc(-c2ccnc(Nc3ccncn3)c2)cc1C(=O)N(C)C12CC(C1)C2
7. Cc1nccc(Nc2cc(-c3cnc(Cl)c(NS(=O)(=O)N(C)C)c3C)ccn2)n1
8. CC(=O)Nc1cc(-c2cc(NS(=O)(=O)N(C)C)c3ccnn3c2)ccn1

Result:
1. 10 to 50 nM
2. 10 to 50 nM
3. > 100 nM
4. < 10 nM
5. 50 to 100 nM
6. 10 to 50 nM
7. < 10 nM
8. 10 to 50 nM

Hi! Can you tell me IC50 for each of these compounds?
1. CNS(=O)(=O)c1cc(-c2ccnc(NC(C)=O)c2)cnc1N
2. CC(=O)Nc1cc(-c2cnc3c(c2)S(=O)(=O)N[C@@H](c2ccccc2)CO3)ccn1
3. CC(=O)Nc1cc(-c2cnc(N)c(S(=O)(=O)Cc3ccccc3F)c2)ccn1
4. CC(=O)Nc1cc(-c2cnc(C)c(NS(=O)(=O)c3cccc(C(C)(C)C)c3)c2)ccn1

Result:
["10 to 50 nM", "> 100 nM", "10 to 50 nM", "< 10 nM"]

Here are 4 compounds. What values of IC50 were reported for them?
1. CC(=O)Nc1cc(-c2cc(N(C)S(C)(=O)=O)c(C)[n+]([O-])c2)ccn1
2. CC(=O)Nc1cc(-c2cnc3cnn(S(=O)(=O)C4CC4)c3c2)ccn1
3. CC(=O)Nc1cc(-c2cnc(C)c(N3CCN(C)S3(=O)=O)c2)ccn1
4. CC(=O)Nc1cc(-c2cnc(N)c(C(=O)N3Cc4ccccc4C3)c2)ccn1

Result:
1: > 100 nM; 2: 10 to 50 nM; 3: 10 to 50 nM; 4: < 10 nM
